# CC50 per entry for Vero E6 cells
One number for each entry, in µM.

Returns the measured CC50 for the input compound. Input: OCCCNc1cc(-c2ccnc(Nc3cccc(Cl)c3)n2)ccn1 [CGP-60474] 0.11

Returns the measured CC50 for the input compound. Input: Cc1ccc(C(=O)Nc2cccc(C(F)(F)F)c2)cc1Nc1nc(-c2cccnc2)nc2c1cnn2C [NVP-BHG712] 3.98

More entries:
Returns the measured CC50 for the input compound. Input: CC(=O)O/N=C1\C(=O)N(Cc2cc(Cl)ccc2Cl)c2ccc(Cl)cc21 [LDN-57444] 12.6

###

- Tested on: SARS-CoV-2 (USA_WA1/2020)
- TEST: microbe, parasite or virus in culture
- Type: cell-based
- ASSAY_CONDITIONS: Severe acute respiratory syndrome coronavirus 2, Vero C1008; SARS-CoV-2 CPE assay, Vero E6 cells; efficacy; read-out: CPE % Efficacy
Where a name gives a salt, the structure may show the parent alone.
Label met when Emax >= 60%; otherwise not met.

Some entries whose results are on file:
hey, is Emax for this one >= 60%? CN(C)CCCN1c2ccccc2CCc2ccc(Cl)cc21 [Clomipramine hydrochloride] met

hey, is Emax for this one >= 60%? CCN(CC)CCOc1ccc2c(c1)C(=O)c1cc(OCCN(CC)CC)ccc1-2 met

hey, is Emax for this one >= 60%? O=C(/C=C/c1ccccc1)NC(NC(=S)Nc1cccc2cccnc12)C(Cl)(Cl)Cl (centres unmarked) not met

hey, is Emax for this one >= 60%? CC1=C(c2ccc(O)cc2)[C@H](c2ccc(OCCN3CCCCC3)cc2)Oc2cc(O)ccc21 not met

hey, is Emax for this one >= 60%? CCCCCCCCn1cc(CC(N)=O)c2cc(-c3cccc(C)c3)ccc21 met

More entries:
hey, is Emax for this one >= 60%? CCN(CC)CCN(Cc1ccc(-c2ccc(C(F)(F)F)cc2)cc1)C(=O)Cn1c(SCc2ccc(F)cc2)nc(=O)c2c1CCC2 met

hey, is Emax for this one >= 60%? O[C@H]1[C@H]2c3cc4c(cc3CN3CCC(=C[C@@H]1O)[C@H]23)OCO4 [Lycorine hydrochloride] not met

hey, is Emax for this one >= 60%? CC(CN1c2ccccc2Sc2ccccc21)N(C)C (centres unmarked) met
